Data credit: patent US20240408169A1

System: NCI-H1048 cells
Assay: MTT proliferation assay, NCI-H1048;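 also: Dose-response in 96-well plates over 8 or 10 concentration points, with exposure spanning 3-4 cell doublings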
Type: cell-based
Settings: 5 days compound exposure, 1:3 serial dilution starting at 10 μM
*1 amine or outer side, *2 acyl side, *3 side chain or, on linkers, in order; H or OH if unused. Where a SMILES comes first, the peptide text is derived from it. Bridges are numbered along the chain shown (N, C = ends). [ ]: non-standard residue; d: D form. The star is where a group is joined. NMehhhLys(Me) = CN([C@@H](CCCCCCCN(C)[*:3])C(=O)[*:2])[*:1]; NMe3Pal(2-OcPr,5-F) = CN[C@@H](Cc1cc(F)cnc1OC1CC1)C(=O)O; X96 = CN([C@@H](Cc1cc(Cl)cc2ccn(C)c12)C(=O)[*:2])[*:1]; Cyclobutanecarbonyl(1-CF3) = O=C(C1(C(F)(F)F)CCC1)*; cBuCO(3,3-F2-1-CF3) = O=C(C1(C(F)(F)F)CC(F)(F)C1)*; Pro(trans-4-F) = O=C(O)[C@@H]1C[C@@H](F)CN1; Gly(cPr) = N[C@H](C(=O)O)C1CC1
GI50 by entry:
Reply numerically in µM, unit not repeated.

Recorded GI50, per entry:
compound="CC(C)C[C@@H]1NC(=O)[C@@H](N(C)C(=O)[C@@H](NC(=O)[C@@H]2C[C@@H](F)CN2C(=O)C2(C(F)(F)F)CC(F)(F)C2)C2CC2)CCCCCCCN(C)C(=O)[C@H](Cc2cc(Cl)cc3ccn(C)c23)N(C)C1=O [Example 392] ({cBuCO(3,3-F2-1-CF3)}-[Pro(trans-4-F)][Gly(cPr)][NMehhhLys(Me)]L[X96]; lactam 3-C)" measured_on="NCI-H1048 cells" quantity_kind=GI50 observed=0.17
compound="CC(C)C[C@@H]1NC(=O)[C@@H](N(C)C(=O)[C@@H](NC(=O)[C@@H]2C[C@@H](F)CN2C(=O)C2(C(F)(F)F)CCC2)C2CC2)CCCCCCCN(C)C(=O)[C@H](Cc2cc(F)cnc2OC2CC2)N(C)C1=O [Example 135] ({Cyclobutanecarbonyl(1-CF3)}-[Pro(trans-4-F)][Gly(cPr)][NMehhhLys(Me)]L[NMe3Pal(2-OcPr,5-F)]; lactam 3-C)" measured_on="NCI-H1048 cells" quantity_kind=GI50 observed=0.03

We now examine a further compound.
compound Cc1nnc(-c2ccc(Cl)cc2C[C@H]2C(=O)N(C)CCCCC=CC[C@H](N(C)C(=O)[C@@H](NC(=O)[C@@H]3C[C@@H](F)CN3C(=O)C3(C(F)(F)F)CC(F)(F)C3)C3CC3)C(=O)N[C@@H](CC(C)C)C(=O)N2C)o1 [Example 116] , GI50 observed: 0.04
